# ASSAY_TARGET: T1, natriuretic peptide receptor-B (human)
# T1 chain: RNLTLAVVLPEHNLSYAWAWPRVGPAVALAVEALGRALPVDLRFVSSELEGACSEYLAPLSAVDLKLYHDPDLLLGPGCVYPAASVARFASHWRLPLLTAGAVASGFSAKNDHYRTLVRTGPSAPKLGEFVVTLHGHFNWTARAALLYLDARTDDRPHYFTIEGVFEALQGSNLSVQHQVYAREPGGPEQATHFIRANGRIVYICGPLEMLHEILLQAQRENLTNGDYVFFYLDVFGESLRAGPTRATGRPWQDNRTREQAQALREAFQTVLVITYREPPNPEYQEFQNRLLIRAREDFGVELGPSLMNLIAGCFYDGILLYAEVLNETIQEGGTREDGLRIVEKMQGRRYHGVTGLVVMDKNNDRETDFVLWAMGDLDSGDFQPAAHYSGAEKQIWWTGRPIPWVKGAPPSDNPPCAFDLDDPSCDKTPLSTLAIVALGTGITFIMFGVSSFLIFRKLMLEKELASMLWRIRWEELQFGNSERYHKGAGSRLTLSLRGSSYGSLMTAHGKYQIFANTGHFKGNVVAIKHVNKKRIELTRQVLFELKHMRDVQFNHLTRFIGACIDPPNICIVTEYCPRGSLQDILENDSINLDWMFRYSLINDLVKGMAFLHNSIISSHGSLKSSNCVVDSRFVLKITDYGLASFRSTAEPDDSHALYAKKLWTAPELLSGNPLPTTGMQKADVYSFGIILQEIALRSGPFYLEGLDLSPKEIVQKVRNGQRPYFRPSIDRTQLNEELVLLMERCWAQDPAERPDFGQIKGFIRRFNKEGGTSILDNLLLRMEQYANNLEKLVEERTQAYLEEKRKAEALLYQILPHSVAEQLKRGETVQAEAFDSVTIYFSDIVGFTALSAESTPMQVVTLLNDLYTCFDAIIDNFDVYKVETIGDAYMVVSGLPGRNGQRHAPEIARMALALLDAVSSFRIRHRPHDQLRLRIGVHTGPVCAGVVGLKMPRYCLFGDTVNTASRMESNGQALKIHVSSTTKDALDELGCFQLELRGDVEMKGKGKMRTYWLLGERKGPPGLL
# ASSAY_COMMENT: cell-based or functional assay
Square brackets hold non-standard residues; d marks the D form. Ends that are not written are not given here. * marks the point of attachment. Hyp = O=C(O)[C@@H]1C[C@@H](O)CN1; Aoc(2) = CCCCCC[C@H](N)C(=O)O; NMeL = CN[C@@H](CC(C)C)C(=O)O; AR‑201‑72 = not defined here; Octanoyl = CCCCCCCC(=O)*; dAze = O=C(O)[C@H]1CCN1; Occ = octanoic acid

BINDER	EC50 group, cGMP in GTM-3 cells
[AR‑201‑72]F[dL]L[Hyp][NMeL]DRI-NH2 (reading uncertain; also: printed as (AR-201-72)-Phe-leu-Leu-Hyp-Nml-Asp-Arg-Ile-NH2) [JAL-1376]	≤ 15 µM
Octanoyl-[dA]F[dM]LPLDRI-NH2 [JAL-1018]	≤ 5 µM
Ac-[Aoc(2)][dA][dA]FGLPLDRI-NH2 [JAL-1033]	≤ 5 µM
[Occ]AFGLPLD[Nmr]I-NH2 (not fully specified (residue 2); printed as Occ-ala-Phe-Gly-Leu-Pro-Leu-Asp-Nmr-Ile-NH2) [JAL-0921]	≤ 15 µM
Octanoyl-AFLL[Hyp][NMeL]D[dAze]I-NH2 (also: lower-case ala, leu: meaning not given here) [JAL-1437]	≤ 5 µM
